measurement protocol: NCI Yeast Anticancer Drug Screen. Data for the bub3 strain (AID 167)
measurement parameters: S. cerevisiae bub3 mutant strain, at 50.0 µM, hits give high values
Compounds without any hit were thinned out: in the full panel of roughly 79,000, 15% have a hit.
quantity: growth inhibition (%)
A number alone suffices; assume %.

{"compound": "N#CC1CC12c1ccccc1C(=O)c1ccccc12 (configuration not stated)", "unit spec": "%", "growth inhibition": -21.4}
{"compound": "Cc1cccc(-c2cccc(C)c2C)c1C", "unit spec": "%", "growth inhibition": 4.2}
{"compound": "CC(C)(NC(=O)OCc1ccccc1)C(=O)OC(=O)C(C)(C)NC(=O)OCc1ccccc1", "unit spec": "%", "growth inhibition": 2.15}
{"compound": "COc1ccc2c(c1)c(CO)c(CO)c[n+]2[O-]", "unit spec": "%", "growth inhibition": 11.8}
{"compound": "C/C(=C\\C(N)=O)C(C)(C)C", "unit spec": "%", "growth inhibition": 21.9}

Entry C(=N\C(/N=C/c1ccccc1)c1ccccc1)/c1ccccc1 — recorded growth inhibition = 2.55

Entry NC(=O)c1[nH]c(N=Nc2ccc(S(N)(=O)=O)cc2)nc1N — recorded growth inhibition = -15.7

Entry COc1cc2c(cc1N)-c1ccc(N)cc1C2O (configuration not stated) — recorded growth inhibition = 17.1

Entry COc1cc(NS(=O)(=O)c2ccccc2)ccc1C — recorded growth inhibition = 22.4

Entry COc1ccc(C#N)c(-c2ccccc2)c1 — recorded growth inhibition = -6.25

Entry O=C(O)c1ccccc1C(=O)CC(O)(C(F)(F)F)C(F)(F)F — recorded growth inhibition = -10.9

Entry Cc1c(-c2ccc3c(c2)COC3)sc(N)c1C#N — recorded growth inhibition = 47.8
